Where do these numbers come from? They come from the supplement of paper PMC10065799.

- TARGET DESC: Fyn (UniProt P06241)
- Sequence (P06241 whole entry, looked up): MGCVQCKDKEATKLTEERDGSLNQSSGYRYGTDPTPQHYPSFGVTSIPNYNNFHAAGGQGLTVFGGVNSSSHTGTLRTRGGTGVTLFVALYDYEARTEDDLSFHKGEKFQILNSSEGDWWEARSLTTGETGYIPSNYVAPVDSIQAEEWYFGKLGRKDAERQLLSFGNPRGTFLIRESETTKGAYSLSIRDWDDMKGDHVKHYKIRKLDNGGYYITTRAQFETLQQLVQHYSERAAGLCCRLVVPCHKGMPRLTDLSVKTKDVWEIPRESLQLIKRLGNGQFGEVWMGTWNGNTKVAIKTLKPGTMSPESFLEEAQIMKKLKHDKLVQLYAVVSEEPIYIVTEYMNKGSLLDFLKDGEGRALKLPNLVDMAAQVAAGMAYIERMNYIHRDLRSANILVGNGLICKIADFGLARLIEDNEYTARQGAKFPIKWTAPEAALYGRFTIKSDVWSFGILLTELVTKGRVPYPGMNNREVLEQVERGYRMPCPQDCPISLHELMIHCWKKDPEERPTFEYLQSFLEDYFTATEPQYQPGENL
- METHOD NOTES: phosphorylation enrichment, bacterial display (enrichment ratio); higher = better substrate or ligand; peptides without Tyr show the background;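 note: 11-residue human phosphosite peptides and single-mutation variants displayed on the E. coli surface, counted by deep sequencing, each peptide's frequency after selection divided by its frequency in the unselected input library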;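 note: frequency after pTyr selection over input frequency; kinase dosed for 20-30% of maximal phosphorylation in three min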
OBSERVATION TYPE: phosphorylation enrichment
Please give the numeric answer without any surrounding text.

>  <POLYMER SEQUENCE>
DPHKIFEFVNS [IRF3_Y107_Y107F]

>  <VALUE OBSERVED>
0.606

$$$$
>  <POLYMER SEQUENCE>
LENSTYQYICV [CRB1_Y760_R764C]

>  <VALUE OBSERVED>
4.96

$$$$
>  <POLYMER SEQUENCE>
NTDETYCIDNE [TUBB2B_Y200]

>  <VALUE OBSERVED>
0.795

$$$$

In plain terms, RLASVYTKRCS [CPT2_Y508_P504L] has a documented phosphorylation enrichment of 0.528
